- TESTED SYSTEM: Arginase-2, mitochondrial (Homo sapiens) (UniProt P78540)
- Sequence (P78540 whole entry): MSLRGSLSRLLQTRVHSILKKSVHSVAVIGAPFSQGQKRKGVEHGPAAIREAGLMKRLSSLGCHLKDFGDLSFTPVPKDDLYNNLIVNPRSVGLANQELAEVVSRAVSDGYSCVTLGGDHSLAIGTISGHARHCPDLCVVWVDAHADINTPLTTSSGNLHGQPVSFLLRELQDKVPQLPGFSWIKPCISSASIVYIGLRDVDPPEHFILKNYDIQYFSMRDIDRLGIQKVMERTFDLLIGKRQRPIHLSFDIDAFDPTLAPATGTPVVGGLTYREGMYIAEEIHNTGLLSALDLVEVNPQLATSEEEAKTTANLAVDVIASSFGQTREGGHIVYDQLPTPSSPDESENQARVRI
- TEST: in vitro enzyme assay to detect the production of urea directly proportional to the activity of Arginase II; also: in the data most compounds retested in dose-response had high values
- Assay type: functional
- Design: scale not given: direction of the effect not stated beside the values
- PARTICULARS: 33.3 µM
The compounds listed here are annotated with their Percent Effect.
Quick reminder: number only, in %, skip the unit.

CCc1nnc(CNCC2CCCN2c2cccnn2)o1 (configuration not stated): -2.4
Cc1cccc(CN2CCc3ncnc(N4CCOCC4)c3CC2)n1: 3.59
CCOc1cc(C)ccc1NC(=O)N(C)Cc1cnn(C)c1: 0.401

For `O=C(Nc1nc2c(s1)CCC2)c1cccnc1N1CCOCC1` , write its Percent Effect.
11.8

Please give measured Percent Effect of the following entry: `CN1CCC(Oc2ccc(NC(=O)c3ccccc3Br)cc2)CC1`
-4.14

Identify the reported Percent Effect for the following entry. `O=C(Cn1ccc2sccc2c1=O)NCc1ccc2c(c1)OCO2`
4.52

Indicate its recorded Percent Effect; the compound in question is `CC(C)c1nnc2n1CCN(CC(=O)Nc1nncs1)C2`
5.68

Answer with the recorded Percent Effect for the compound listed here: `CCc1nnc2n1CCN(C(=O)c1ccc(C(F)(F)F)nc1C)C2`
-6.08

Please supply the value of reported Percent Effect for the item `O=C(c1cccnc1)N1C[C@@H]2CC[C@H](C1)N(Cc1cccc(Cl)c1F)C2`
5

Tell me its Percent Effect given c1cnnc(N2CCCC2CNc2ncnc3c2CCC3)c1 (configuration not stated) as the entry.
3.66

Give the reported value of Percent Effect for this record: `COc1cccc(CN2CCN(C(=O)CN3CCOCC3)CC2)n1`
3.6

Supply reported Percent Effect belonging to this compound: `CNC(=O)c1nc2c(s1)CCN(C(=O)Cc1ccc(OC)cc1)CC2`
-1.59

----------
# maps each entry to its Percent Effect
- TESTED SYSTEM: AMP-activated protein kinase, AMPK (Homo sapiens) (UniProt P54646+O43741+P54619+Q9UGJ0+Q9Y478+Q13131+Q9UGI9)
- TEST: AMP-dependent Kinase enzyme assay. An in vitro enzyme assay that detects ADP turnover that is directly proportional to AMPK activity. This uses naive AMPK that is activated during the assay with MK-8722
- Assay type: functional
- Set-up: scale not given: direction of the effect not stated beside the values
- PARTICULARS: 30 µM
Kindly answer with a numeric value in %, unit omitted.

// below: answered molecules
OC(CN1CCN(c2ncccn2)CC1)c1cccc(F)c1 (stereo unspecified): -5.06
Cc1nc(C2CCCN(C(=O)c3sccc3C3CC3)C2)no1 (stereo unspecified): -29
Cc1ccccc1C1CCCN1C(=O)CN1CC2(CCNCC2)OC1=O (stereo unspecified): -3.53
Cc1csc2nc3n(c(=O)c12)CCN(C(=O)c1ccncc1)CC3: 7.17
CS(=O)(=O)NC[C@]12COC[C@H]1CN(CC1CCCC1)C2: 8.19

Identify measured Percent Effect corresponding to `Cc1ccc2c(n1)N(C)CCN(C(=O)NC1CC1)C2`
117

Respond only with Percent Effect recorded for `CNC(=O)c1cc2c(nc1NC(C)C)CCN(C(=O)NC(C)C)CC2`
-4.24

Give the measured Percent Effect for `Cc1cc(N2CCC(N(C)C(=O)Nc3ccccc3)CC2)nc(C)n1`
12.3

----------
- TESTED SYSTEM: Proteasome subunit beta (Trypanosoma cruzi) (UniProt O96673)
- Sequence (O96673 as listed by the source): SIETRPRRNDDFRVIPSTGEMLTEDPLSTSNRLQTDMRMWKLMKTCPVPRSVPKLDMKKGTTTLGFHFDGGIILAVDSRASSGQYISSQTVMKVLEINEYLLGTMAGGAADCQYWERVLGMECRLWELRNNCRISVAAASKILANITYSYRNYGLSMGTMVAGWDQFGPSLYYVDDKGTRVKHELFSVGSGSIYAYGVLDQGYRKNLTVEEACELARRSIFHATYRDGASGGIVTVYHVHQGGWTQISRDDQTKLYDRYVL
- TEST: Trypanosoma cruzi proteasome chymotrypsin-like activity (TcProtChymo) assay. Also: in the data most compounds retested in dose-response had high values.
- Type: functional
- Parameters: scale not given: direction of the effect not stated beside the values
- PARTICULARS: 9.37 µM
METRIC: Percent Effect (%)
Lab book: enter the figure in %, no units written.

Recorded Percent Effect, per entry:
Cc1noc(C(C)C)c1C(=O)NS(=O)(=O)c1ccc2c(c1)OCCCO2: 6.23
CC(C)CN1CCN(Cc2nc3ccccc3[nH]2)[C@H]2CS(=O)(=O)C[C@H]21: 5.41
COCC(=O)N1Cc2cn(C)nc2C(COc2cccnc2)C1 (configuration not stated): 10.4
Cc1ccc(N2CCCc3sc(C(=O)NCc4cccnc4)nc32)nn1: 5.39
COCC1CC2(CCN(C(=O)c3cccc(C)c3)CC2)CO1 (configuration not stated): 1.74

Return Percent Effect for the following compound: CN(C)CC1CSCCCN1C(=O)Nc1ccc(C(C)(C)C)cc1 (configuration not stated)
1.57

Answer with the recorded Percent Effect for the compound listed here: O=C(COCC1CC1)N1CCCC(n2cccn2)C1 (configuration not stated)
13.4
